# procedure text: qHTS RealTime-Glo MT Cell Viability Assay in HepG2 cells - 40 hour (AID 1224870); further: nearly all actives have a fitted effect of over 50% in size
# condition set: RealTime-Glo luminescence; series mostly up to 76.8 µM
# Description: National Center for Advancing Translational Sciences [NCATS] NIH Chemical Genomics Center [NCGC] U.S. Environmental Protection Agency [EPA] National Institutes of Environmental Health Sciences [NIEHS] National Toxicology Program [NTP] U.S. Food and Drug Administration [FDA] Measure of cell viability is critical in the cell-base assay. Analysis of cell viability is necessary for the characterization of cell responses to cytotoxic drugs and environmental stress. […]
Records with an inconclusive call do not appear. Calls of active or inactive are those of the source. The call rests on the fitted dose curve; in most records, active means well fitted cell-killing curve with a large enough effect in the repeat runs; inconclusive means weak or mixed curves, or effect the other way; inactive means flat fitted curve, though single readings scatter.
observed property: outcome

// known answers, use as guide
CCCCOCCOCCOC(C)=O
inactive
CC(C)Cc1ccc(C(C)C(=O)O)cc1 (stereo unspecified)
inactive
O=C(O)Cc1cccc2ccccc12
inactive
NC(=O)NO
inactive
C[C@]12CC[C@@H]3c4ccc(O)cc4C[C@@H](CCCCCCCCCS(=O)CCCC(F)(F)C(F)(F)F)[C@H]3[C@@H]1CC[C@@H]2O (stereo partly specified)
inactive
CC(=O)CCC(C)C
inactive
COC1=CC(=O)C[C@@H](C)[C@]12Oc1c(Cl)c(OC)cc(OC)c1C2=O
inactive
N[C@@H](Cc1c[nH]c2ccccc12)C(=O)O
inactive

Supply outcome value. Item: CN(C)Cc1cc(CN(C)C)c(O)c(CN(C)C)c1
inactive

Supply outcome value. Item: C=C(C)C(N)=O
inactive

---

# procedure text: qHTS assay to identify small molecule antagonists of the sonic hedgehog signaling (Shh) pathway - cell viability counter screen (AID 1259367); further: nearly all actives have a fitted effect of over 55% in size
# condition set: NIH/3T3 Gli1-Luc viability, CellTiter-Fluor, 24 h; series mostly up to 92.4 µM
Records with an inconclusive call do not appear. Calls of active or inactive are those of the source. Calls follow the shape of the dose curve; as a rule, active = well fitted cell-killing curve with a large enough effect in the repeat runs; inconclusive = weak or mixed curves, or effect the other way; inactive = no such curve, though single readings can be large or run the other way.
Output constraint: value belongs to 1.0 for active, 0.0 for inactive

What is the recorded call for this molecule in the test? C#C[C@]1(O)CC[C@H]2[C@@H]3CCc4cc(O)ccc4[C@H]3CC[C@@]21C
0.0

What is the recorded call for this molecule in the test? O=C(OCc1ccccc1)c1ccccc1
0.0

What is the recorded call for this molecule in the test? CCn1cc(C(=O)O)c(=O)c2ccc(C)nc21
0.0

What is the recorded call for this molecule in the test? Cc1cnc(NC(=O)C2=C(O)c3ccccc3S(=O)(=O)N2C)s1
0.0

What is the recorded call for this molecule in the test? C[C@]12C[C@H](O)[C@H]3[C@@H](CCC4=CC(=O)CC[C@@]43C)[C@@H]1CC[C@@H]2C(=O)CO
0.0

What is the recorded call for this molecule in the test? CC(=O)/C=C/C1=C(C)CCCC1(C)C
0.0

What is the recorded call for this molecule in the test? CC(O)COc1ccccc1 (stereo not given)
0.0

What is the recorded call for this molecule in the test? N[C@@H](Cc1c[nH]c2ccccc12)C(=O)O
0.0

What is the recorded call for this molecule in the test? Cc1c(N(C)CS(=O)(=O)O)c(=O)n(-c2ccccc2)n1C
0.0

What is the recorded call for this molecule in the test? CCCCCCCCCCCCCCCCCC(=O)OCC(O)CO (stereo not given)
0.0

What is the recorded call for this molecule in the test? COc1ccc(O)cc1
0.0

What is the recorded call for this molecule in the test? CC(=O)Oc1ccccc1C(=O)O
0.0

What is the recorded call for this molecule in the test? CN(C)C=O
0.0

What is the recorded call for this molecule in the test? CC1=C(/C=C/C(C)=C/C=C/C(C)=C/C(=O)O)C(C)(C)CCC1
0.0

What is the recorded call for this molecule in the test? CC(=O)OC/C=C(C)/C=C/C=C(C)/C=C/C1=C(C)CCCC1(C)C
0.0

What is the recorded call for this molecule in the test? NC(=O)N1c2ccccc2C=Cc2ccccc21
0.0

What is the recorded call for this molecule in the test? NC(=O)NO
0.0

What is the recorded call for this molecule in the test? Cc1cccc(C)c1O
0.0

What is the recorded call for this molecule in the test? NC(N)=NC(N)=NCCc1ccccc1
0.0

What is the recorded call for this molecule in the test? C=CC(=O)NC(C)(C)CS(=O)(=O)O
0.0

What is the recorded call for this molecule in the test? O=C(O)CN(CC(=O)O)CC(=O)O
0.0

What is the recorded call for this molecule in the test? C[C@]12CC[C@@H]3c4ccc(O)cc4CC[C@H]3[C@@H]1CCC2=O
0.0

What is the recorded call for this molecule in the test? CC(C)Cc1ccc(C(C)C(=O)O)cc1 (stereo not given)
0.0

What is the recorded call for this molecule in the test? C[C@]12CC[C@@H]3c4ccc(O)cc4C[C@@H](CCCCCCCCCS(=O)CCCC(F)(F)C(F)(F)F)[C@H]3[C@@H]1CC[C@@H]2O (stereo not given in full)
0.0

What is the recorded call for this molecule in the test? O=[N+]([O-])c1ccc(O)cc1
1.0
